From: ChEMBL document CHEMBL1201862

Test system: SF-268
assay.comment: NCI tumour cell line growth inhibition, 48 h
Calls of active or inactive are those of the source. Rule as the data show it: active = GI50 up to about 1.1 µM and inactive = higher.
Please respond with reported GI50 for every item in the list.

Enquiry: What value of GI50 has been reported for the following compound? CCCCCCCCCCCCCC(=O)NO
Return: 7.78 µM (inactive)

Enquiry: What value of GI50 has been reported for the following compound? COc1nc(=O)n(C2CC(N=[N+]=[N-])C(CO)O2)cc1C (stereo unspecified)
Return: > 100 µM (inactive)

Enquiry: What value of GI50 has been reported for the following compound? COC(=O)C12OC3CO[Si](C(C)C)(C(C)C)O[Si](C(C)C)(C(C)C)OC3C1Oc1nc(=O)ccn12 (stereo unspecified)
Return: 12 µM (inactive)

Enquiry: What value of GI50 has been reported for the following compound? Cc1c(C2Cc3ccccc3N2C(=O)/C=C\C(=O)O)c2ccccc2n1C (stereo unspecified)
Return: 18.7 µM (inactive)

Enquiry: What value of GI50 has been reported for the following compound? CC(=O)NC1C(OCc2ccccc2)OC(COC(=O)CCCCCNc2ccc([N+](=O)[O-])c3[nH]c4ccc(O)cc4c(=O)c23)C(O)C1OC(C)C(=O)N[C@@H](C)C(=O)N[C@H](CCC(=O)OCc1ccccc1)C(N)=O (stereo partly specified)
Return: 2.31 µM (inactive)

Enquiry: What value of GI50 has been reported for the following compound? CC(=O)N(C(C)=O)n1c(Cc2ccc(Cl)cc2)n[nH]c1=O
Return: > 100 µM (inactive)

* * *

Test system: UACC-257
assay.comment: NCI tumour cell line growth inhibition, 48 h
The source made the active and inactive calls. Rule as the data show it: active = GI50 up to about 1.1 µM and inactive = higher.
reported.metric: GI50

Enquiry: What value of GI50 has been reported for the following compound? C[N+]1(CCC[N+]2(C)CC3C4C=CC(CC4)C3C2)CCOCC1 (stereo unspecified)
Return: > 100 µM (inactive)

Enquiry: What value of GI50 has been reported for the following compound? Cc1nc(=O)[nH]c2s/c(=N/C3CCCCC3)n(C3CCCCC3)c(=O)c12
Return: > 100 µM (inactive)

Enquiry: What value of GI50 has been reported for the following compound? COC(=O)C(C(=O)C(=O)Nc1cccc(C)c1)C1=NC(N)SS1 (stereo unspecified)
Return: > 100 µM (inactive)

Enquiry: What value of GI50 has been reported for the following compound? C=CCc1ccccc1CC1(OCC)OC(=O)c2ccccc21 (stereo unspecified)
Return: 60.7 µM (inactive)

Enquiry: What value of GI50 has been reported for the following compound? Oc1cc(Cl)ncn1
Return: > 100 µM (inactive)

Enquiry: What value of GI50 has been reported for the following compound? Cc1ccc(OC(=O)N2C/C(=C\c3ccccc3)C(=O)/C(=C/c3ccccc3)C2)cc1
Return: 40.6 µM (inactive)

Enquiry: What value of GI50 has been reported for the following compound? [O-]c1c[n+](CCCC[n+]2cc([O-])on2)no1
Return: > 100 µM (inactive)

Enquiry: What value of GI50 has been reported for the following compound? Nc1nc(Cl)c(N)c(NCC2(CO)CC(O)C2)n1 (stereo unspecified)
Return: > 100 µM (inactive)

Enquiry: What value of GI50 has been reported for the following compound? CC(=O)N(C(C)=O)n1c(Cc2ccc(Cl)cc2)n[nH]c1=O
Return: > 100 µM (inactive)

Enquiry: What value of GI50 has been reported for the following compound? COc1cc(/C=C2/C(=O)N/C(=N\C(C)=O)N2C)ccc1OC(C)=O
Return: > 100 µM (inactive)

Enquiry: What value of GI50 has been reported for the following compound? CNC(=S)NNC(=O)c1c(C)nc2sccn12
Return: > 100 µM (inactive)

* * *

GI50 values recorded for HCT-15

Enquiry: What value of GI50 has been reported for the following compound? CCC(=C(C#N)C#N)c1cc(OC)c(OC)c(OC)c1
Return: > 100 µM

Enquiry: What value of GI50 has been reported for the following compound? Cn1c(O)c(C(=O)Nc2ccc([N+](=O)[O-])cc2)c(=O)n(C)c1=S
Return: 2.13 µM

Enquiry: What value of GI50 has been reported for the following compound? CC1=NN(C(=O)CC(=O)Nc2cccc(Cl)c2)C(=O)C1/N=N/c1ccc(S(N)(=O)=O)cc1 (configuration not stated)
Return: > 100 µM

Enquiry: What value of GI50 has been reported for the following compound? COC1C(OC(=S)Nc2ccccc2)c2ccccc2N1C(C)=O (configuration not stated)
Return: 52.1 µM

Enquiry: What value of GI50 has been reported for the following compound? CC(=O)C(=[N+]=[N-])C(=O)N1CCOC1=O
Return: > 10 µM

Enquiry: What value of GI50 has been reported for the following compound? NC1CNC(=O)c2cscc21 (configuration not stated)
Return: > 100 µM

Enquiry: What value of GI50 has been reported for the following compound? COC1/C=C/C(C)C(C(C)C(OC)C(C)CCC(=O)C(C)C(CC(=O)O)OC)OC(=O)/C=C/C=C(\C)CC(OC)C(OC)C2=CC(=O)O[C@@H](C(C)C(OC)CC(OC)/C=C/C(C)C(O)C1)[C@H]2O (some centres not stated)
Return: 0.0611 µM

Enquiry: What value of GI50 has been reported for the following compound? Clc1ccc(C2=CC(c3ccccc3)N3C(=N[C@H]4CCCC[C@@H]43)N2)cc1 (some centres not stated)
Return: 4.08 µM

Enquiry: What value of GI50 has been reported for the following compound? Cc1[nH]n(-c2ccc(S(=O)(=O)O)cc2)c(=O)c1/N=N/c1ccccc1
Return: > 100 µM

Enquiry: What value of GI50 has been reported for the following compound? Cc1nc(=O)[nH]c2s/c(=N/C3CCCCC3)n(C3CCCCC3)c(=O)c12
Return: > 100 µM

Enquiry: What value of GI50 has been reported for the following compound? NC(=S)NS(=O)(=O)c1ccc(F)cc1F
Return: > 100 µM

Enquiry: What value of GI50 has been reported for the following compound? CC(C)(c1ccc(OC#N)cc1)c1ccc(OC#N)cc1
Return: 20.3 µM

Enquiry: What value of GI50 has been reported for the following compound? N=C(N)SCc1cc(Cl)cc(Cl)c1O
Return: 20.1 µM

Enquiry: What value of GI50 has been reported for the following compound? N#CC1(C#N)C(c2ccc(C3C(C#N)(C#N)C3(C#N)C#N)cc2)C1(C#N)C#N
Return: > 100 µM

Enquiry: What value of GI50 has been reported for the following compound? O=[N+]([O-])c1ccc2nc(-c3ccccn3)c(-c3ccccn3)nc2c1
Return: 43 µM

Enquiry: What value of GI50 has been reported for the following compound? Nc1ccccc1.O=P(O)(OP(=O)(O)c1ccccc1)c1ccccc1
Return: 89.3 µM

Enquiry: What value of GI50 has been reported for the following compound? CN1Cc2ccccc2/C=C\c2ccccc21
Return: 52.4 µM

* * *

Tested on: NCI/ADR-RES
assay.comment: NCI tumour cell line growth inhibition, 48 h
Active and inactive are the calls of the source. Cut-off read from the data, not from the text of the source: active = GI50 up to about 1.1 µM and inactive = higher.
reported.metric: GI50

Enquiry: What value of GI50 has been reported for the following compound? Cc1ncc(CO)c(CN)c1O
Return: > 100 µM (inactive)

Enquiry: What value of GI50 has been reported for the following compound? Nc1nc(Cl)c(N)c(NCC2(CO)CC(O)C2)n1 (stereo not given)
Return: > 100 µM (inactive)

Enquiry: What value of GI50 has been reported for the following compound? CSc1nc(SC)c2c(CO)c(Br)n(Cc3ccccc3)c2n1
Return: 24.7 µM (inactive)

Enquiry: What value of GI50 has been reported for the following compound? CC(C)(C)OC(=O)Nc1nnc(S(N)(=O)=O)s1
Return: > 100 µM (inactive)

Enquiry: What value of GI50 has been reported for the following compound? COc1cc2c(cc1OC)C(C(c1ccccc1)c1ccccc1)N(C)CC2 (stereo not given)
Return: 68.9 µM (inactive)

Enquiry: What value of GI50 has been reported for the following compound? CN(C)/C=N/c1c2c(nc3ccccc13)CCCC2
Return: 37.3 µM (inactive)

Enquiry: What value of GI50 has been reported for the following compound? Cc1nc2ccc(S(=O)(=O)Nc3ccccn3)cc2c(=O)n1NS(=O)(=O)c1ccccn1
Return: > 100 µM (inactive)

Enquiry: What value of GI50 has been reported for the following compound? Nc1ccccc1CC(O)C(=O)O (stereo not given)
Return: > 100 µM (inactive)

Enquiry: What value of GI50 has been reported for the following compound? CN1Cc2ccccc2/C=C\c2ccccc21
Return: > 100 µM (inactive)

Enquiry: What value of GI50 has been reported for the following compound? CC(=O)C(=[N+]=[N-])C(=O)N1CCOC1=O
Return: > 10 µM (inactive)

* * *

Test system: UACC-257
assay.comment: NCI tumour cell line growth inhibition, 48 h
The source made the active and inactive calls. No stated cut-off is given here; in the data, active = GI50 up to about 1.1 µM and inactive = higher.
Write down the outcome that applies. Available outcomes: Y = active, N = inactive

Enquiry: Hi, sorry to bother you, what did the test record for Cc1ccc(N2C(=O)/C(=C/c3ccc(N(CCC#N)CCC#N)cc3)N=C2COc2ccc(Cl)cc2Cl)cc1 ?
Return: N

Enquiry: Hi, sorry to bother you, what did the test record for CC(=O)OCC1OC(N2C(=O)CC(N)=Nc3ccccc32)C(OC(C)=O)C(OC(C)=O)C1OC(C)=O (configuration not stated) ?
Return: N

Enquiry: Hi, sorry to bother you, what did the test record for O=c1cc(C(F)(F)F)c2cc3c(cc2o1)NCCC3 ?
Return: N

Enquiry: Hi, sorry to bother you, what did the test record for COC1/C=C/C(C)C(C(C)C(OC)C(C)CCC(=O)C(C)C(CC(=O)O)OC)OC(=O)/C=C/C=C(\C)CC(OC)C(OC)C2=CC(=O)O[C@@H](C(C)C(OC)CC(OC)/C=C/C(C)C(O)C1)[C@H]2O (some centres not stated) ?
Return: Y

Enquiry: Hi, sorry to bother you, what did the test record for Cc1ccc(-c2cc(=S)n(-c3ccccc3)c3[nH]c(=S)n(-c4ccccc4)c(=N)c23)cc1 ?
Return: N

Enquiry: Hi, sorry to bother you, what did the test record for CCOC(=O)c1nc2ccc([N+](=O)[O-])cc2c2c1CCO2 ?
Return: N

Enquiry: Hi, sorry to bother you, what did the test record for c1ccc(OCc2nnc3n2N=C(c2ccccc2)CS3)cc1 ?
Return: N
